Source listed as patent US12612407B2.

- target_of_assay: human TLR7 (Homo sapiens, UniProt Q9NYK1)
- Construct: host or cells: HEK293 (HEK-Blue hTLR7)
- Sequence (Q9NYK1 27-1049): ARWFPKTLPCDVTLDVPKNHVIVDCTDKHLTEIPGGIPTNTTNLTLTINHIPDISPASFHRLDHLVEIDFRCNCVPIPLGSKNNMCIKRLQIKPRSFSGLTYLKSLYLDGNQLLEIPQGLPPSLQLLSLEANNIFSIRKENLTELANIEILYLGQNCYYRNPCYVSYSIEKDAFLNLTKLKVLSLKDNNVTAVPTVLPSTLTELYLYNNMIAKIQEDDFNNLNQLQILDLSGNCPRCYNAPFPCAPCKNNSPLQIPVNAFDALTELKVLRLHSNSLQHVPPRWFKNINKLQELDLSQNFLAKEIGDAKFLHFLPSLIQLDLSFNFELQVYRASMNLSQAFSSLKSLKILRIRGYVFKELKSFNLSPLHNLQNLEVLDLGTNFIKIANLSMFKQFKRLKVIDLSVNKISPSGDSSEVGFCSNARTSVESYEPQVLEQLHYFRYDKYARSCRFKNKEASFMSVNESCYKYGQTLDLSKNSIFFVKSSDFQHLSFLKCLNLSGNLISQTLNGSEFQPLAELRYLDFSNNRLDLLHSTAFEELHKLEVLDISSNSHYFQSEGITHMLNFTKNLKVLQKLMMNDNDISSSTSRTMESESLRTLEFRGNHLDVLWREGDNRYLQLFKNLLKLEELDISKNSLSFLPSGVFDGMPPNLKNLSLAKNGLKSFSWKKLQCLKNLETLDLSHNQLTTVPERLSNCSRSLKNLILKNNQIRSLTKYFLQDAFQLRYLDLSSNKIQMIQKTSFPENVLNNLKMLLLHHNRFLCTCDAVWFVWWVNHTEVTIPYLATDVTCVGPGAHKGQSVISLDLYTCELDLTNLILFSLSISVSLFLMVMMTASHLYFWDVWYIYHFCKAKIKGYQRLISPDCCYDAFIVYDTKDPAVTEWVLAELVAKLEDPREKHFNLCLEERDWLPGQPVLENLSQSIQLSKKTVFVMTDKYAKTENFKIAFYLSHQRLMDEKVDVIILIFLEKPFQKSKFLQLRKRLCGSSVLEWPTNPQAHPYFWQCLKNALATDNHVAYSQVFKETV
- method_description: HEK293-Blue hTLR7 Reporter Assay (QUANTI-BLUE, SEAP readout)
- Assay type: cell-based
- condition_summary: HEK-Blue-hTLR7 cells, 24 hrs treatment, Table 1, B1-B232
- Protocol: HEK293-Blue hTLR7 Reporter Assay: HEK-Blue-hTLR7 cell line (Invivogen, Cat. No. hkb-htlr7) was designed so that the expression of the secreted embryonic alkaline phosphatase (SEAP) was induced by activating NF-κ and AP-1 via stimulating human TLR7 with TLR7 agonists. […] Then 20 μL of the supernatant from each well was incubated with 180 μL Quanti-blue substrate solution at 37° C. for 10-30 mins before the activity of the SEAP was determined at 620-655 nm using a spectrophotometer. […]
pEC50: −log10 of the molar value.
The entries below come with measured pEC50 values attached.
parameter: pEC50

>>> print(df.to_string())
                                   molecule  test_value
0  CCCC(CCO)Oc1nc(N)c2ncc(Cc3cnc(N4CCN(C(=O)CN(C)C)CC4)c(C)c3)n2n1 (stereo not shown)        8.07
1  CCCCOc1nc(N)c2ncc(Cc3ccc(N4CCNCC4)c(OCCC)c3)n2n1        6.03
2  CCCCOc1nc(N)c2ncc(Cc3cnc(N4CCC(NC(=O)CN(C)C)CC4)c(C)c3)n2n1        7.35
3  CCCCOc1nc(N)c2ncc(Cc3cnc(N4CCC(N(C)C)CC4)c(C)c3)n2n1        7.33
